# Test system: KMST-6 non-cancerous fibroblast cells
# PROTOCOL TEXT: MTT reduction assay
# Type: cell-based, human
# RUN PARAMETERS: Homo sapiens, Fibroblast, 24 h
QUANTITY NAME: IC50 (µM)
Numbers only here, please. The scale is µM.

In one line, give reported IC50 of the entry `CC(=O)[C@H]1CC[C@H]2[C@@H]3CC[C@H]4C[C@H](N)CC[C@]4(C)[C@H]3CC[C@]12C` . 85.5
